Test system: E. faecalis ICB 27159
Format: cell-based, Enterococcus faecalis
Details: Isosensitest medium, 10^5 microbes per ml, 37° C., 18-24 hours
Starred links: 1 amine or outer side, 2 acyl side, 3 side chain; linkers in the order of their positions; H or OH if unused. Positions of bridges follow the written chain, without caps; N, C: chain ends. Non-standard residues stand in square brackets, D forms with d. Residues, ends and D or L forms follow the SMILES beside them. Phe(3R-OH) = O=C([C@@H](N[*:1])[C@H](O[*:3])c1ccccc1)[*:2]; Asn(3S-OH) = NC(=O)[C@@H](O)[C@H](N)C(=O)O; Leu(3R-OH) = CC(C)[C@@H](O)[C@H](N)C(=O)O; dAla(TMS) = C[Si](C)(C)C[C@@H](N)C(=O)O; 3Pal = N[C@@H](Cc1cccnc1)C(=O)O; aThr = C[C@H](O)[C@H](N)C(=O)O
Catalogue of MIC E. faecalis ICB 27159 readings, one per entry.
Give just the number in µg/mL; leave the unit off.

[
  {
    "compound": "CC[C@H](C)[C@@H]1NC(=O)[C@@H](CCCNC(=N)N)NC(=O)[C@H](CC(C)C)NC(=O)[C@H]([C@H](O)C(C)C)NC(=O)[C@@H](NC(=O)[C@H](Cc2cccnc2)NC(=O)[C@H](N)C[Si](C)(C)C)[C@@H](c2ccccc2)OC(=O)[C@H](CO)NC(=O)[C@H]([C@H](O)C(N)=O)NC(=O)CNC(=O)[C@H]([C@H](C)O)NC1=O [Example 7] (H-[dAla(TMS)][3Pal][Phe(3R-OH)][Leu(3R-OH)]L[dR]I[aThr]G[Asn(3S-OH)]S; ester 3-C)",
    "MIC E. faecalis ICB 27159, µg/mL": 1
  },
  {
    "compound": "CC[C@H](C)[C@@H]1NC(=O)[C@@H](CCCNC(=N)N)NC(=O)[C@H](CC(C)C)NC(=O)[C@H]([C@H](O)C(C)C)NC(=O)[C@@H](NC(=O)[C@H](Cc2cccnc2)NC(=O)[C@H](N)C[Si](C)(C)C)[C@@H](c2ccccc2)OC(=O)[C@H](CO)NC(=O)[C@H]([C@H](O)C(N)=O)NC(=O)CNC(=O)[C@H]([C@H](C)O)NC1=O [Example 2] (H-[dAla(TMS)][3Pal][Phe(3R-OH)][Leu(3R-OH)]L[dR]I[aThr]G[Asn(3S-OH)]S; ester 3-C)",
    "MIC E. faecalis ICB 27159, µg/mL": 0.5
  }
]

# input State its MIC E. faecalis ICB 27159: CC[C@H](C)[C@@H]1NC(=O)[C@@H](CCCNC(=N)N)NC(=O)[C@H](CC(C)C)NC(=O)[C@H]([C@H](O)C(C)C)NC(=O)[C@@H](NC(=O)[C@H](CC(C)C)NC(=O)[C@H](N)CC(C)C)[C@@H](c2ccccc2)OC(=O)[C@H](CO)NC(=O)[C@H]([C@H](O)C(N)=O)NC(=O)CNC(=O)[C@H]([C@H](C)O)NC1=O [Example 1A, reference compound] (H-[dL]L[Phe(3R-OH)][Leu(3R-OH)]L[dR]I[aThr]G[Asn(3S-OH)]S; ester 3-C)
# output 0.5
